Literature survey of pIC50 (system: 5-hydroxytryptamine receptor 1A (Rattus norvegicus, UniProt P19327)).
Molecular target: 5-hydroxytryptamine receptor 1A (Rattus norvegicus, UniProt P19327)
Sequence (P19327 whole entry): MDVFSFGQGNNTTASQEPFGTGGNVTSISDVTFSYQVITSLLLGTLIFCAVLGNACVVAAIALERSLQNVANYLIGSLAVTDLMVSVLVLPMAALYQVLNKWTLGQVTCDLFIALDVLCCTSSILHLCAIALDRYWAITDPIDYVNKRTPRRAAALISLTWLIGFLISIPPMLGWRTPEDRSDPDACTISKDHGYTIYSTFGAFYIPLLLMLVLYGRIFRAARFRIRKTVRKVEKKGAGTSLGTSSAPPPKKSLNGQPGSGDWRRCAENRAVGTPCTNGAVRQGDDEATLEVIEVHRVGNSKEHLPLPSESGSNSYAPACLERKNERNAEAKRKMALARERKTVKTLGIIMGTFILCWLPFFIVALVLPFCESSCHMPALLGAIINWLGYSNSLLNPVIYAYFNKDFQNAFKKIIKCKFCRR
Conceptually, pIC50 converts a concentration in mol/L into minus its log10.

N#Cc1ccc2[nH]cc(CCCCN3CCN(c4ccc(O)cc4)CC3)c2c1 = 8.22
COc1ccccc1N1CCN(CCCN[C@H]2CCCc3c(OC)cccc32)CC1 = 7.47
N#Cc1ccc2[nH]cc(CCCCN3CCN(c4ccc5[nH]c(C(N)=O)cc5c4)CC3)c2c1 = 7.85

Value lookup for pIC50; key = O=C(NCCCN1CCC(c2noc3cc(Cl)ccc23)CC1)c1nsc2ccccc12 5.43

Try this compound next: COc1ccc2c(c1)CCC=C2CCCN1CCN(c2cc(OC)ccc2OC)CC1 6.79

====

Target: 5-hydroxytryptamine receptor 1A (Rattus norvegicus)
Sequence (P19327 whole entry): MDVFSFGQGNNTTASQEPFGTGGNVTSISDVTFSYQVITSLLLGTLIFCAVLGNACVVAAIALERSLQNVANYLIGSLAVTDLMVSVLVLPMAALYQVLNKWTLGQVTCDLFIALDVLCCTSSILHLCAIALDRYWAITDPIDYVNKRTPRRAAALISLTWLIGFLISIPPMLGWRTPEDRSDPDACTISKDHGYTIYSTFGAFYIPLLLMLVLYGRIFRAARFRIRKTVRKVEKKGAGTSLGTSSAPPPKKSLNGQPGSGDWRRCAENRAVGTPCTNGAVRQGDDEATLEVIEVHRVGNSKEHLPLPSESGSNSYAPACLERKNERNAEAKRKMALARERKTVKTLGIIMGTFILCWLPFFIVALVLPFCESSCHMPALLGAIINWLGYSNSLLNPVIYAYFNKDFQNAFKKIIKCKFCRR
Literature survey of log10 IC50 (system: 5-hydroxytryptamine receptor 1A (Rattus norvegicus)).
Base-10 log of IC50, unit nM.

Illustrative cases are given below, each with its answer.
COc1ccccc1OCCNCCCC(=O)N1CCCSc2c1cnn(C)c2=O = 0.96
CC(C)N(CCCN1CCC(C(=O)c2ccc(F)cc2)CC1)C(=O)c1noc2ccccc12 = 3.36
c1ccc(CN2CCN(Cc3cn(-c4ccccc4)c(-c4ccccc4)n3)CC2)cc1 = 3.05

Short answer please: log10 IC50, 5-hydroxytryptamine receptor 1A (Rattus norvegicus), entry Cl.O=C(NCCCCN1CCN(c2nsc3ccccc23)CC1)c1ccccc1O 1.08

Try this compound next: NC(=O)c1ccc2[nH]cc(CCCCN3CCC(c4ccccc4)CC3)c2c1 -1.00

Try this compound next: Cl.Nc1ccccc1C(=O)NCCCCN1CCN(c2nsc3ccccc23)CC1 0.58

Try this compound next: CN(CCN1CCC(C(=O)c2ccc(F)cc2)CC1)C(=O)c1nsc2ccccc12 3.40

Try this compound next: COc1ccccc1OCCNCCC(=O)N1CCCSc2c1cnn(C)c2=O 1.06

Try this compound next: Cc1nn(CCCCN2CCN(c3nsc4ccccc34)CC2)c(=O)c2ccccc12 0.53

Try this compound next: COc1ccccc1N1CCN(CCN[C@H]2CCCc3c(OC)cccc32)CC1 0.85
